Biological target: HLA-A*02:01 (Homo sapiens, UniProt P04439, D140Y/D185E/D98H/E176V/E277Q/G131W/G231S/I119V/I121R/I166T/I218V/L300P/L318F/N151K/N90K/P208A/P217A/Q86G/Q94H/R138H/R169H/T345S)
Assay: MHC binding assay (UV-ligand exchange, β2m ELISA, peptide exchange yield)
Conditions: MHC class I binding score; binding to HLA-A*02:01 ranged by peptide exchange yield (UV-ligand exchange, β2m ELISA)
MEASUREMENT_LABEL: Peptide exchange

>  <SUBSTANCE>
241 (SLVEVNPAYSV; listed as Homo sapiens) [compound 241]

>  <Peptide exchange>
“+++” (≧50 = +++)

$$$$
>  <SUBSTANCE>
256 (FLPPEHTIVYI; listed as Homo sapiens) [compound 256]

>  <Peptide exchange>
“+++” (≧50 = +++)

$$$$
>  <SUBSTANCE>
217 (ALIHPVSTV; listed as Homo sapiens) [compound 217]

>  <Peptide exchange>
“++” (≧20% = ++)

$$$$
>  <SUBSTANCE>
192 (KMLDGASFTL; listed as Homo sapiens) [compound 192]

>  <Peptide exchange>
“+++” (≧50 = +++)

$$$$

**Q:** State, in one line, measured Peptide exchange of 383 (ALLELENSVTL; listed as Homo sapiens) [compound 383]
**A:** “+++” (≧50 = +++)

**Q:** State, in one line, measured Peptide exchange of 33 (VLLSLLEKV; listed as Homo sapiens) [compound 33]
**A:** “++” (≧20% = ++)

**Q:** State, in one line, measured Peptide exchange of 134 (YLQELIFSV; listed as Homo sapiens) [compound 134]
**A:** “+++” (≧50 = +++)

**Q:** State, in one line, measured Peptide exchange of 152 (ILFEDIFDV; listed as Homo sapiens) [compound 152]
**A:** “+++” (≧50 = +++)

* * *

Target: HLA-A*02:01 (Homo sapiens, UniProt P04439, D140Y/D185E/D98H/E176V/E277Q/G131W/G231S/I119V/I121R/I166T/I218V/L300P/L318F/N151K/N90K/P208A/P217A/Q86G/Q94H/R138H/R169H/T345S)
Experiment: MHC binding assay (UV-ligand exchange, β2m ELISA, peptide exchange yield)
Settings: MHC class I binding score; binding to HLA-A*02:01 ranged by peptide exchange yield (UV-ligand exchange, β2m ELISA)
MEASUREMENT_LABEL: Peptide exchange

These solved cases illustrate the format of a correct answer.
>  <SUBSTANCE>
141 (YLDFSNNRL; listed as Homo sapiens) [compound 141]

>  <ENDPOINT_VALUE>
“++” (≧20% = ++)

$$$$
>  <SUBSTANCE>
24 (SLSDGLEEV; listed as Homo sapiens) [compound 24]

>  <ENDPOINT_VALUE>
“++” (≧20% = ++)

$$$$
>  <SUBSTANCE>
382 (ALQNYIKEA; listed as Homo sapiens) [compound 382]

>  <ENDPOINT_VALUE>
“++” (≧20% = ++)

$$$$
>  <SUBSTANCE>
364 (LLQNEQFEL; listed as Homo sapiens) [compound 364]

>  <ENDPOINT_VALUE>
“+++” (≧50 = +++)

$$$$

**Q:** State, in one line, measured Peptide exchange of 220 (LLQKFVPEI; listed as Homo sapiens) [compound 220]
**A:** “++” (≧20% = ++)

**Q:** State, in one line, measured Peptide exchange of 572 (ALADLIEKELSV; listed as Homo sapiens) [compound 572]
**A:** “+++” (≧50 = +++)

**Q:** State, in one line, measured Peptide exchange of 515 (LLQELVLFL; listed as Homo sapiens) [compound 515]
**A:** “+++” (≧50 = +++)

**Q:** State, in one line, measured Peptide exchange of 258 (ELAERVPAI; listed as Homo sapiens) [compound 258]
**A:** “++” (≧20% = ++)

**Q:** State, in one line, measured Peptide exchange of 74 (ALLDPEVLSIFV; listed as Homo sapiens) [compound 74]
**A:** “+++” (≧50 = +++)

* * *

Target: HLA-A*02:01 (Homo sapiens, UniProt P04439, D140Y/D185E/D98H/E176V/E277Q/G131W/G231S/I119V/I121R/I166T/I218V/L300P/L318F/N151K/N90K/P208A/P217A/Q86G/Q94H/R138H/R169H/T345S)
Assay: MHC binding assay (UV-ligand exchange, β2m ELISA, peptide exchange yield)
Conditions: MHC class I binding score; binding to HLA-A*02:01 ranged by peptide exchange yield (UV-ligand exchange, β2m ELISA)
MEASUREMENT_LABEL: Peptide exchange

These solved cases illustrate the format of a correct answer.
>  <SUBSTANCE>
158 (KLFDVDEDGYI; listed as Homo sapiens) [compound 158]

>  <ENDPOINT_VALUE>
“+++” (≧50 = +++)

$$$$
>  <SUBSTANCE>
478 (YLLHEKLNL; listed as Homo sapiens) [compound 478]

>  <ENDPOINT_VALUE>
“+++” (≧50 = +++)

$$$$
>  <SUBSTANCE>
603 (FLIEPEHVNTV; listed as Homo sapiens) [compound 603]

>  <ENDPOINT_VALUE>
“++” (≧20% = ++)

$$$$
>  <SUBSTANCE>
490 (FLLQHVQEL; listed as Homo sapiens) [compound 490]

>  <ENDPOINT_VALUE>
“+++” (≧50 = +++)

$$$$

**Q:** State, in one line, measured Peptide exchange of 390 (ALFMKQIYL; listed as Homo sapiens) [compound 390]
**A:** “+++” (≧50 = +++)

**Q:** State, in one line, measured Peptide exchange of 173 (LLDSASAGLYL; listed as Homo sapiens) [compound 173]
**A:** “+++” (≧50 = +++)

**Q:** State, in one line, measured Peptide exchange of 618 (VLFDSESIGIYV; listed as Homo sapiens) [compound 618]
**A:** “+++” (≧50 = +++)

**Q:** State, in one line, measured Peptide exchange of 277 (LLPPLESLATV; listed as Homo sapiens) [compound 277]
**A:** “++” (≧20% = ++)

**Q:** State, in one line, measured Peptide exchange of 211 (LLWPGAALL; listed as Homo sapiens) [compound 211]
**A:** “++” (≧20% = ++)

* * *

Target: HLA-A*02:01 (Homo sapiens, UniProt P04439, D140Y/D185E/D98H/E176V/E277Q/G131W/G231S/I119V/I121R/I166T/I218V/L300P/L318F/N151K/N90K/P208A/P217A/Q86G/Q94H/R138H/R169H/T345S)
Assay: MHC binding assay (UV-ligand exchange, β2m ELISA, peptide exchange yield)
Details: MHC class I binding score; binding to HLA-A*02:01 ranged by peptide exchange yield (UV-ligand exchange, β2m ELISA)
MEASUREMENT_LABEL: Peptide exchange

>  <SUBSTANCE>
275 (YLVYILNEL; listed as Homo sapiens) [compound 275]

>  <MEASUREMENT_LABEL>
Peptide exchange

>  <ENDPOINT_VALUE>
“++” (≧20% = ++)

$$$$
>  <SUBSTANCE>
370 (SLLQDLVSV; listed as Homo sapiens) [compound 370]

>  <MEASUREMENT_LABEL>
Peptide exchange

>  <ENDPOINT_VALUE>
“+++” (≧50 = +++)

$$$$
>  <SUBSTANCE>
528 (SVAEGRALMSV; listed as Homo sapiens) [compound 528]

>  <MEASUREMENT_LABEL>
Peptide exchange

>  <ENDPOINT_VALUE>
“+++” (≧50 = +++)

$$$$
>  <SUBSTANCE>
472 (KLLEVSDDPQV; listed as Homo sapiens) [compound 472]

>  <MEASUREMENT_LABEL>
Peptide exchange

>  <ENDPOINT_VALUE>
“+++” (≧50 = +++)

$$$$
>  <SUBSTANCE>
82 (FLSSVTYNL; listed as Homo sapiens) [compound 82]

>  <MEASUREMENT_LABEL>
Peptide exchange

>  <ENDPOINT_VALUE>
“+++” (≧50 = +++)

$$$$

**Q:** State, in one line, measured Peptide exchange of 150 (RLWEEGEELEL; listed as Homo sapiens) [compound 150]
**A:** “+++” (≧50 = +++)

**Q:** State, in one line, measured Peptide exchange of 476 (ALMERTGYSMV; listed as Homo sapiens) [compound 476]
**A:** “+++” (≧50 = +++)

**Q:** State, in one line, measured Peptide exchange of 468 (YLRSVGDGETV; listed as Homo sapiens) [compound 468]
**A:** “+++” (≧50 = +++)

**Q:** State, in one line, measured Peptide exchange of 160 (FLFDEEIEQI; listed as Homo sapiens) [compound 160]
**A:** “+++” (≧50 = +++)

**Q:** State, in one line, measured Peptide exchange of 142 (FLFATPVFI; listed as Homo sapiens) [compound 142]
**A:** “+++” (≧50 = +++)
